For each entry below, report its viability, T/C value.
tested on: 855422-203-R-J1-PDC complex spheroid viability; assay: Anticancer human tumor 855422-203-R-J1-PDC patient-derived bladder carcinoma cell line growth inhibition [POLQ]; conditions: second compound 1 µM; first compound 0.0316 µM; stronger effect = lower value;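 further: spheroids exposed to compounds for seven days before readout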
Numbers only, in %.

| compound | measured-number |
| --- | --- |
| COc1cccc(OCCCN)c1-c1cc(Nc2cnc(C#N)cn2)n[nH]1 + Cc1cccc(N(C)C(=O)C2C(O)CCN2c2nc(C)cc(C(F)(F)F)c2C#N)c1 | 32.1 |

Hi, could you look up viability, T/C for each item in my list?
1. CCc1cc2c(N3CCc4c(cc(Cn5ccnc5)cc4-c4cn(C)nc4C(F)(F)F)C3=O)ccnc2c(OC)n1 + COC1C(OC(N)=O)C(O)C(Oc2ccc3c(O)c(NC(=O)c4ccc(O)c(CC=C(C)C)c4)c(=O)oc3c2C)OC1(C)C
2. Cn1ncnc1[C@H]1c2n[nH]c(=O)c3cc(F)cc(c23)N[C@@H]1c1ccc(F)cc1 + Nc1ccc(C#CCN(C(=O)Cc2ncc(C(F)(F)F)cc2C(F)(F)F)c2ccc(F)cc2)nn1

1: 87.9; 2: 115
